Assay: RNA encapsulation efficiency of LNPs (Ribogreen fluorescence assay)
Type: physicochemical
Details: LNP, sg:mRNA 1:1, N/P about 6, amine lipid/DSPC/cholesterol/PEG-2k-DMG 50/9/38/3; Table 2, Experiments 2-20
Encapsulation (%) reference
Quick note: give the figure in %, leave out the unit.

COMPOUND	Encapsulation (%)
CCCCC/C=C\C/C=C\CCCCCCCC(=O)OCC(COC(=O)CCCN(C)C)COC(=O)CCC(OCCCCCCCC)OCCCCCCCC (stereo not shown) [Compound 26]	98
CCCCC/C=C\C/C=C\CCCCCCCC(=O)OCC(COC(=O)CCC(OCCCCCCCC)OCCCCCCCC)COC(=O)NCCCN(CC)CC (stereo not shown) [Compound 7]	99
CCCCC/C=C\C/C=C\CCCCCCCC(=O)OCC(COC(=O)CCC(OCCCCCCCC)OCCCCCCCC)COC(=O)NC1CCN(CC)CC1 (stereo not shown) [Compound 37]	100
CCCCC/C=C\C/C=C\CCCCCCCC(=O)OCC(COC(=O)CCC(OCCCCCCCC)OCCCCCCCC)COC(=O)OCCCCN1CCCC1 (stereo not shown) [Compound 13]	97
CCCCCC/C=C\COC(=O)CCCCCCCC(=O)OCC(COC(=O)CCCC(=O)OC(CCCCCCCC)CCCCCCCC)COC(=O)OCCCN(CC)CC (stereo not shown) [Compound 86]	98
CCCCC/C=C\C/C=C\CCCCCCCC(=O)OCC(COC(=O)CCC(OCCCCCCCC)OCCCCCCCC)COC(=O)NC(C)CN(CC)CC (stereo not shown) [Compound 44]	91
CCCCC/C=C\C/C=C\CCCCCCCC(=O)OCC(COC(=O)CCC(OCCCCCCCC)OCCCCCCCC)COC(=O)OCCN(C)C (stereo not shown) [Compound 18]	97
CCCCCCCCCCOC(=O)CCCCCCCC(=O)OCC(COC(=O)CCC(OCCCCCCCC)OCCCCCCCC)COC(=O)OCCC1CCCN1C (stereo not shown) [Compound 74]	99
CCCCC/C=C\C/C=C\CCCCCCCC(=O)OCC(COC(=O)CCC(OCCCCCCCC)OCCCCCCCC)COC(=O)OCC1CCCN(C)C1 (stereo not shown) [Compound 53]	99
CCCCC/C=C\C/C=C\CCCCCCCC(=O)OCC(COC(=O)CCCCN(C)C)COC(=O)CCC(OCCCCCCCC)OCCCCCCCC (stereo not shown) [Compound 25]	99

Request: Requested read-out: Encapsulation (%). Entry: CCCCC/C=C\C/C=C\CCCCCCCC(=O)OCC(COC(=O)CCC(OCCCCCCCC)OCCCCCCCC)COC(=O)NCC1CCCN1CC (stereo not shown) [Compound 40]
Response: 98

Request: Could you do the same for CCCCC/C=C\C/C=C\CCCCCCCC(=O)OCC(COC(=O)CCC(OCCCCCCCC)OCCCCCCCC)COC(=O)N1CCN(CC)CC1 (stereo not shown) [Compound 48] , please?
Response: 97

Request: Please do the same for CCCCCCCCCCOC(=O)CCCCCCCC(=O)OCC(COC(=O)CCCC(=O)OC(CCCCCCCC)CCCCCCCC)COC(=O)CCCN(C)C (stereo not shown) [Compound 89] as well.
Response: 95

* * *

Test: pKa measurement of unformulated amine lipid (fluorescence, method of Jayaraman et al.)
Assay type: physicochemical
Details: 100 μM in 0.1 M phosphate buffer, pH 2.0-12.0
Overview of reported pKa across a group of molecules:

Answered examples (2):
MOLECULE	pKa
CCCCC/C=C\C/C=C\CCCCCCCC(=O)OCC(COC(=O)CCC(OCCCCCCCC)OCCCCCCCC)COC(=O)N(C)CCN(CC)CC (stereo not drawn)	6.03
CCCCC/C=C\C/C=C\CCCCCCCC(=O)OCC(COC(=O)CCC(OCCCCCCCC)OCCCCCCCC)COC(=O)OCCCN(CC)CC (stereo not drawn) [Compound 1, reference compound]	6.4

Request: For CCCCC/C=C\C/C=C\CCCCCCCC(=O)OCC(COC(=O)CCC(OCCCCCCCC)OCCCCCCCC)COC(=O)NC1CCCN(CC)C1 (stereo not drawn) , what is its reported pKa?
Response: 6.58

* * *

Test: RNA encapsulation efficiency of LNPs (Ribogreen fluorescence assay)
Assay type: physicochemical
Settings: LNP, sg:mRNA 1:1, N/P about 6, amine lipid/DSPC/cholesterol/PEG-2k-DMG 50/9/38/3; Table 2, Experiments 2-20
Encapsulation (%): recorded values
Reply with the number and its unit after it.

> print(dat)
                                   molecule  result
1  CCCCC/C=C\C/C=C\CCCCCCCC(=O)OCC(COC(=O)CCC(OCCCCCCCC)OCCCCCCCC)COC(=O)OCCN1CCCC1 (stereo not shown)     90%
2  CCCCC/C=C\C/C=C\CCCCCCCC(=O)OCC(COC(=O)CCC(OCCCCCCCC)OCCCCCCCC)COC(=O)OCC1CCCN1C (stereo not shown)     93%
3  CCCCCC/C=C\COC(=O)CCCCCCCC(=O)OCC(COC(=O)CCCCCC(=O)OC(CCCCCCCC)CCCCCCCC)COC(=O)OCCCN(CC)CC (stereo not shown)     99%
4  CCCCCCCCCCOC(=O)CCCCCCCC(=O)OCC(COC(=O)CCCC(=O)OC(CCCCCCCC)CCCCCCCC)COC(=O)OCCCN(CC)CC (stereo not shown)     99%
5  CCCCCCCCCCCCOC(=O)CCCCCCCC(=O)OCC(COC(=O)CCC(OCCCCCCCC)OCCCCCCCC)COC(=O)OCCCN(CC)CC (stereo not shown)     99%

Here's the next entry for you.
Request: Requested field: Encapsulation (%). Item: CCCCC/C=C\C/C=C\CCCCCCCC(=O)OCC(COC(=O)CCC(OCCCCCCCC)OCCCCCCCC)COC(=O)NCC1CCCCN1CC (stereo not shown)
Response: 96%

* * *

Assay: Dynamic light scattering of LNPs: Z-average diameter, number average diameter, PDI
Format: physicochemical
Details: LNP, sg:mRNA 1:1, N/P about 6, 50/9/38/3; Table 2, Experiments 2-20
EXPERIMENTAL READOUT: Z-avg (nm)
The figure you give is taken to be in nm; do not add the unit.

> print(dat)
                                   molecule  experimental.readout  quantity.unit  quantitative.readout
1  CCCCC/C=C\C/C=C\CCCCCCCC(=O)OCC(COC(=O)CCCCN(C)C)COC(=O)CCC(OCCCCCCCC)OCCCCCCCC (centres unmarked)            Z-avg (nm)             nm                    87

Request: Fill in: Z-avg (nm) of CCCCCCCCCCOC(=O)CCCCCCCC(=O)OCC(COC(=O)CCCC(=O)OC(CCCCCCCC)CCCCCCCC)COC(=O)NCCN(CC)CC (centres unmarked) is ___
Response: 117.1

Request: Queued: CCCCC/C=C\C/C=C\CCCCCCCC(=O)OCC(COC(=O)CCC(OCCCCCCCC)OCCCCCCCC)COC(=O)NC1CCN(CC)CC1 (centres unmarked)
Response: 65.01

Request: Also CCCCCCCCCCOC(=O)CCCCCCCCCCCC(=O)OCC(COC(=O)CCC(OCCCCCCCC)OCCCCCCCC)COC(=O)OCCCN(CC)CC (centres unmarked) , if possible.
Response: 93.13

Request: Param item: CCCCC/C=C\C/C=C\CCCCCCCC(=O)OCC(COCCCN(CC)CC)COC(=O)CCC(OCCCCCCCC)OCCCCCCCC (centres unmarked)
Response: 89

Request: Same lookup for CCCCCCCCCCOC(=O)CCCCCCCC(=O)OCC(COC(=O)CCCC(=O)OC(CCCCCCCC)CCCCCCCC)COC(=O)OCCCN(CC)CC (centres unmarked) , please.
Response: 101.8

Request: Param item: CCCCCCCCCCOC(=O)CCCCCCCC(=O)OCC(COC(=O)CCC(OCCCCCCCC)OCCCCCCCC)COC(=O)OCC1CCCN(CC)C1 (centres unmarked)
Response: 91.65

Request: Also, CCCCC/C=C\C/C=C\CCCCCCCC(=O)OCC(COC(=O)CCC(OCCCCCCCC)OCCCCCCCC)COC(=O)OCCN1CCCC1 (centres unmarked) please.
Response: 57.21

* * *

Test: Dynamic light scattering of LNPs: Z-average diameter, number average diameter, PDI
Assay type: physicochemical
Conditions: LNP, sg:mRNA 1:1, N/P 6.0, 50/9/38/3; Table 4, Experiments 101-104
PDI strictly less than 0.03 = TRUE. Otherwise FALSE.

Please review the entries below; each comes with its answer.
> print(dat)
                                   molecule  group
1  CCCCC/C=C\C/C=C\CCCCCCCC(=O)OCC(COC(=O)CCC(OCCCCCCCC)OCCCCCCCC)COC(=O)OCC1CCCN(C)C1 (centres unmarked)   TRUE
2  CCCCCC/C=C\COC(=O)CCCCCCCC(=O)OCC(COC(=O)CCC(OCCCCCCCC)OCCCCCCCC)COC(=O)OCCCN(CC)CC (centres unmarked)  FALSE
3  CCCCC/C=C\C/C=C\CCCCCCCC(=O)OCC(COC(=O)CCC(OCCCCCCCC)OCCCCCCCC)COC(=O)C1CCN(C)CC1 (centres unmarked)  FALSE
4  CCCCC/C=C\C/C=C\CCCCCCCC(=O)OCC(COC(=O)CCC(OCCCCCCCC)OCCCCCCCC)COC(=O)NCC1CCCN1CC (centres unmarked)   TRUE

Proceed to the following item.
Request: API: query returns whether the molecule falls strictly under 0.03 in PDI. Query: CCCCC/C=C\C/C=C\CCCCCCCC(=O)OCC(COC(=O)CCCN(CC)CC)COC(=O)CCC(OCCCCCCCC)OCCCCCCCC (centres unmarked)
Response: TRUE

Attribution: patent US20220402862A1
